- System: SNB-19 CNS
- Measurement protocol: NCI tumour cell line growth inhibition, 48 h
I'd appreciate it if you could supply TGI values for the items below.

Exercise: // TGI lookup, key: COC(=O)c1ccc2c(c1)sc1nc(-c3ccc(OC)cc3)cn12
Key: > 100 µM

Exercise: Note, next up: CNC(=O)c1cccc(C#Cc2cncnc2Nc2ccc(OCc3cccc(F)c3)c(Cl)c2)c1
Key: > 25 µM

Exercise: Note, next up: COC(=O)Cn1c(=O)oc2nc(-c3ccccc3)cc(C(F)(F)F)c21
Key: > 100 µM

Exercise: Note, next up: CC(=O)NNc1nc(C)c(C(=O)/C=C/c2ccc(Cl)c(Cl)c2)s1
Key: > 100 µM

Exercise: Note, next up: CN(C)c1ccc(/C=C(\NC(=O)c2ccccc2)C(=O)Nc2cccc(C(=O)NCCCO)c2)cc1
Key: > 100 µM

Exercise: Note, next up: CCOC(=O)C1SC(=Nc2ccc(Cl)cc2Cl)N=C1C (configuration not stated)
Key: > 100 µM

Exercise: Note, next up: O=C1[C@@H](O)[C@@H]2CCCC[C@@]23CCCN13
Key: > 100 µM

Exercise: Note, next up: O=C(Cc1nc2ccc([N+](=O)[O-])cc2[nH]c1=O)C(=O)Nc1ccccc1[N+](=O)[O-]
Key: > 100 µM

Exercise: Note, next up: C=C1CC2(CCS(=O)(=O)c3ccccc32)OC1=O (configuration not stated)
Key: 22.8 µM

Exercise: Note, next up: O=C(CSSCC(=O)OCCS(=O)(=O)Nc1ccc(Br)cc1)OCCS(=O)(=O)Nc1ccc(Br)cc1
Key: > 100 µM

Exercise: Note, next up: CCOC(=O)c1sc2nc1CSc1sc(=S)sc1SCc1nc(sc1C(=O)OCC)-c1nc(c(C(=O)OCC)s1)CSc1sc(=S)sc1SCc1nc-2sc1C(=O)OCC
Key: > 10 µM

Exercise: Note, next up: Cc1cccc(Cl)c1NC(=O)c1cnc(Nc2cc(N3CCOCC3)cc(S(C)(=O)=O)c2)s1
Key: > 10 µM
